system-name: KRAS G13C (Homo sapiens, UniProt P01116+P62937, G13C)
Sequence (P01116 1-169 isoform P01116-2 G13C): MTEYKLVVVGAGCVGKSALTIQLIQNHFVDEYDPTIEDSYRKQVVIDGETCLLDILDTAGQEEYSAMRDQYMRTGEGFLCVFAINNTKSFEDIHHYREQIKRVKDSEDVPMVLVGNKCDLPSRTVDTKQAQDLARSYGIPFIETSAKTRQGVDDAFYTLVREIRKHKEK
Sequence (P62937 whole entry): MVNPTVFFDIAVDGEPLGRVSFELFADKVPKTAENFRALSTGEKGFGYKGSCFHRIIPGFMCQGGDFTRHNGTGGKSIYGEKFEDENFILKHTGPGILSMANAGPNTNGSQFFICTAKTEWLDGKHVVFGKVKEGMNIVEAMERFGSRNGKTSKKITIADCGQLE
method: Disruption of BRAF RBD interaction with Ras (FRET / MOA assay, with Cyclophilin A)
Format: biochemical
experimental-setup: read-out: KRAS G13C FRET data, IC50
Text: This protocol may also be executed substituting other Ras proteins or nucleotides. The purpose of this biochemical assay was to measure the ability of test compounds to facilitate ternary complex formation between a nucleotide-loaded K-Ras isoform and Cyclophilin A; the resulting ternary complex disrupts binding to a BRAF^RBD construct, inhibiting K-Ras signaling through a RAF effector. Data is reported as IC50 values. […]
measured-quantity: IC50

INSERT INTO assay_data (smiles_code, measured_quantity, result) VALUES
  ('CCn1c(-c2cccnc2[C@H](C)OC)c2c3cc(ccc31)-c1csc(n1)C[C@H](NC(=O)[C@H](C(C)C)N(C)C(=O)N1CCOC[C@@H]1c1ccccc1)C(=O)N1CCC[C@H](N1)C(=O)OCC(C)(C)C2', 'IC50', '1000 to 10000 nM'),
  ('CCn1c(-c2cccnc2[C@H](C)OC)c2c3cc(ccc31)-c1csc(n1)C[C@H](NC(=O)[C@H](C(C)C)N(C)C(=O)N1CCC(C(=O)C(F)(F)F)CC1)C(=O)N1CCC[C@H](N1)C(=O)OCC(C)(C)C2', 'IC50', '10 to 100 nM');

Alright, here's another compound for you.
The reported IC50 value, KRAS G13C (Homo sapiens, UniProt P01116+P62937, G13C), for "CCn1c(-c2cnccc2COC)c2c3cc(ccc31)-c1cc(O)cc(c1)C[C@H](NC(=O)[C@H]([C@@H](C)OC)N(C)C(C)=O)C(=O)N1CCC[C@H](N1)C(=O)OCC(C)(C)C2" reads 100 to 1000 nM

Source listed as patent US20230233569A1.
